Origin of the recorded values: the supplement of paper PMC4466140

assayedTarget: ScHse1
assayDetails: SPOT peptide array binding signal intensity (averaged, normalized) (arbitrary units (background-subtracted, floor 0; scale differs between SH3 domains)); higher = stronger binding of the SH3 domain to the peptide
Label Satisfied when SPOT peptide array binding signal intensity is at or above 600; otherwise label Not satisfied.

Example entries and their recorded answers appear below.
FSRRQSMDIPSKNRN: Not satisfied
WRPRIVPILPYITRL: Satisfied
RMVRRRPLRVQFSAR: Satisfied
ISPPASPPPEFDFSK: Not satisfied
PKRRAPPPVPKKPSS: Not satisfied
NRLRKRLNLPSEISI: Satisfied

Now for another entry.
Data request: Assess whether reported SPOT peptide array binding signal intensity for "FPGKKSPRLPHRNKK" sits at 600 or higher.
Data returned: Not satisfied
